Tested on: CAKI-1 renal
Assay: NCI-60 one-dose screen, 48 h
Conditions: 10 µM unless noted
The panel holds about 83,000 compounds, 20% with a hit somewhere; the sample as a whole holds those more often. Activity calls are given as the source filed them. How the source made its calls: active means growth percent below 10; inactive means the rest.
Select the correct class. Options are active, inactive and nothing else.

*Q* Check the results log: what was the call for O=C(Nc1ccc2ccccc2c1)c1cc2ccccc2cc1O ?
*A* inactive

*Q* Each compound tested received a call. Report the one for N#Cc1ccccc1-c1ccc(Cn2c(-c3cscn3)nc3c(Cl)cccc32)cc1 .
*A* inactive

*Q* Would you mind telling me which call this test gave CCCCCCCCCCCCCCCCCCn1cc(COc2ccc(C=O)cc2)nn1 ?
*A* inactive

*Q* Field: outcome | Entry: C[N+]1=C(/C=C\C=C\c2ccccc2)C(C)(C)c2ccccc21
*A* inactive

*Q* Name the outcome recorded for CC[C@]1(O)CC2CN(CCc3c([nH]c4ccccc34)C(C(=O)OC)(c3cc4c(cc3OC)N(C=O)[C@H]3[C@@](O)(C(=O)OC)[C@H](OC(C)=O)[C@]5(CC)[C@@H]6C[C@@H]6CN6CC[C@]43[C@@H]65)C2)C1 (stereo partly drawn) in the assay.
*A* inactive

*Q* What was the test verdict on C=C1C(=O)O[C@H]2[C@H]1CC/C(COC(=O)NCc1ccc(Cn3c(=O)sn(CCCI)c3=O)cc1)=C\CC[C@@]1(C)O[C@@H]21 ?
*A* inactive

*Q* How was O=C(NCc1cccnc1)/C(=C\c1ccc(Br)cc1)S(=O)(=O)c1ccccc1 classified in this test?
*A* active

---
*Q* Each compound tested received a call. Report the one for COc1ccc(/C(C)=C(\c2ccc(OCCN3CCOCC3)cc2)c2ccc(OC(=O)C3CCCCC3)cc2)cc1 .
*A* inactive

---

Tested on: MALME-3M melanoma
Experiment: NCI-60 one-dose screen, 48 h (100 = growth as untreated, 0 = no growth, -100 = all killed)
Conditions: 10 µM unless noted
This is part of a sample that, as a whole, favours compounds with a hit. Of some 83,000 tested, about 20% had one in any assay.
METRIC_NAME: growth (%)
Entry rule: numbers only, all in %.

Examples from the recorded data:
*Q* Give growth for the following compound: Cc1cc2nc(C(Cl)Cl)nc(-c3ccc(Cl)cc3)n2n1
*A* -16.5

*Q* Identify the reported growth for the following entry. NS(=O)(=O)c1ccc(C(=O)N=Nc2c(O)[nH]c3c(F)cccc23)cc1
*A* 95.9

*Q* Using the record for COc1ccc(-c2ccccc2)cc1-c1c(Nc2cc(Cl)cc(Cl)c2O)c(=O)c1=O , state its measured growth.
*A* -19.4

*Q* Write down growth measured for item N#C/C(=C\c1ccccc1Cl)c1cc2ccccc2[nH]1
*A* 92.8

*Q* For the compound Nc1nc(CSc2n[nH]c(N)n2)nc(Nc2ccccc2)n1 , report growth.
*A* 104

Consider the additional compound presented here.
*Q* Return value of growth for input Cc1c(C(=O)OCCCCOC(=O)c2c(C)n(C)c3scc[n+]23)[n+]2ccsc2n1C , no commentary.
*A* 105

---

Recorded measurements of growth, one per entry
System: SR leukemia
Test: NCI-60 one-dose screen, 48 h (100 = growth as untreated, 0 = no growth, -100 = all killed)
Conditions: 10 µM unless noted
This is part of a sample that, as a whole, favours compounds with a hit. Of some 83,000 tested, about 20% had one in any assay.
Lab book: enter the figure in %, no units written.

*Q* Tell us which growth value is on record for O=C(Nc1ccccc1C(=O)N/N=C(\c1ccccc1)c1ccccn1)c1ccccc1
*A* 4.3

*Q* Return growth for the following compound: [2H]C([2H])([2H])Oc1cc(F)ccc1/C=C/C(=O)/C=C(/C=C/c1ccc(F)cc1OC([2H])([2H])[2H])OB(F)F
*A* 41.7

*Q* Read off the recorded growth for CSc1nnc(-c2cc3c([nH]c4ccccc43)c(-c3cccc(O)c3)n2)n1-c1ccc(C)cc1
*A* 5.99

*Q* Identify growth associated with the compound O=C(CCN1CCOCC1)Nc1cccc(-n2cc(-c3ccncc3)c(-c3ccc(Cl)c(O)c3)n2)c1
*A* 16.8

*Q* Return the recorded growth value; entry: [Cu+].[NH-][C@H]1C[N-]C(=O)[C@H]([C@H]2CCN=C(N)N2)[N-]C(=O)/C(=C\NC(N)=O)[N-]C(=O)[C@H](CNC(=O)C[C@@H](N)CCCN)[N-]C(=O)[C@H](CO)[N-]C1=O
*A* 96.1

Continuing:
*Q* Provide measured growth value, entry: COc1cc(OC)cc(-c2ccc(-c3ccc(C(=N)N)cn3)s2)c1
*A* 6.61

*Q* Please supply the value of reported growth for the item C=C1C(=O)O[C@H]2[C@H]1CC/C(COC(=O)NCCCCNC(=O)OC/C1=C/CC[C@@]3(C)O[C@H]3[C@H]3OC(=O)C(=C)[C@@H]3CC1)=C\CC[C@@]1(C)O[C@@H]21
*A* -1.79

---

System: SK-MEL-28 melanoma
Assay: NCI-60 one-dose screen, 48 h (100 = growth as untreated, 0 = no growth, -100 = all killed)
Details: 10 µM unless noted
About 83,000 compounds went through this panel and 20% of them were active in at least one assay; those are over-represented in the sample as a whole. The source made the active and inactive calls. How the source made its calls: active means growth percent below 10; inactive means the rest.
List of growth values.

*Q* In one line, give reported growth of the entry N=C1/C(=C2\NC3C=CC=CC3S2)C(c2ccc(Cl)cc2)C2C(=O)N(c3ccccc3)C(=S)N12 (stereo not given) .
*A* 103% (inactive)

*Q* Respond only with growth recorded for CCOC(=O)c1c(-c2ccc(OC)cc2)c(C#N)c2c(C#N)c(N)nn2c1N
*A* 44.8% (inactive)

*Q* Specify measured growth for O=C1/C(=C/c2ccccc2)CN(C(=O)C(Cl)Cl)C/C1=C\c1ccccc1 .
*A* -25.7% (active)

*Q* Input CC(=O)c1nn(-c2ccccc2)/c(=N/N=Cc2cn(-c3ccccc3)nc2-c2cc3ccccc3oc2=O)s1 , output reported growth.
*A* 111% (inactive)

*Q* Dear colleague, please send me the reported growth for C/C=C(\C)C(=O)N[C@H]1CC[C@]2(C)C3CC[C@@]4(C)C(CC[C@@H]4C(C)N(C)C)C3CCC2[C@H]1OC(C)=O (stereo not given in full) when you can.
*A* -97.5% (active)

*Q* Identify measured growth associated with COC(=O)c1nc(-c2ccc(C)cc2)oc1Sc1ccc(C)cc1
*A* 106% (inactive)

*Q* For the compound CC(=O)N1N=C(c2ccc(F)cc2)CC1c1sc(N(C)Cc2ccccc2)nc1Cl (stereo not given) , report growth.
*A* 114% (inactive)

*Q* Report growth for Cc1ccc(-c2nc3nc(-c4ccc(Cl)cc4)nc(N4CCCNCC4)c3o2)cc1
*A* 108% (inactive)

---

System: SW-620 colon
Test: NCI-60 one-dose screen, 48 h
Conditions: 10 µM unless noted
This is part of a sample that, as a whole, favours compounds with a hit. Of some 83,000 tested, about 20% had one in any assay. The source made the active and inactive calls. Rule for the calls: active = growth percent below 10; inactive = the rest.
Parameter call: string, one of active, inactive

Example entries and their recorded answers appear below.
*Q* How did this test come out for Cc1ccc2c(c1)C(C)Cc1c(ncnc1-n1cnc3cc(C)ccc31)N2C (stereo not given) ?
*A* inactive

*Q* Dear colleague, could you share the recorded outcome for CCOC(=O)CCCn1c(-c2ccccc2)cc(-c2ccccc2)c(C#N)c1=O when you have a moment?
*A* inactive

*Q* Dear all, I need the recorded test outcome for Cc1cc2nc(C(Cl)Cl)nc(-c3ccc(Cl)cc3)n2n1 , thank you.
*A* active

*Q* Query: recorded result category for COc1cc(/C=C2/C=C(c3ccc(C(C)(C)C)cc3)N(CCc3ccc(S(N)(=O)=O)cc3)C2=O)cc(OC)c1OC in this test
*A* inactive

Continuing:
*Q* Recorded call for CC(=O)c1c(C)nc(SCC(=O)Nc2ccc(Cl)cc2)n1-c1ccc(Cl)cc1 ?
*A* inactive

*Q* What call does the record list for COc1ccc(CN2CCc3c(Cl)nc(N)nc3C2=O)c(OC)c1 ?
*A* active

*Q* Each compound tested received a call. Report the one for CC(=O)N1N=C(c2ccc(Nc3nc(Nc4ccc(F)cc4)nc(Nc4ccc(F)cc4)n3)cc2)CC1c1ccccc1 (stereo not given) .
*A* inactive

*Q* Record lookup: outcome of this test for COc1ccc(-c2ccccc2)cc1-c1c(Nc2cc(Cl)cc(Cl)c2O)c(=O)c1=O ?
*A* inactive

*Q* Please let me know the test result on file for COC(=O)c1c2c(c(C)[n+]([O-])c1C)C(=O)C(NCCN1CCOCC1)=CC2=O .
*A* inactive

*Q* Test call for this compound, please: N#Cc1ccccc1-c1ccc(Cn2c(-c3cscn3)nc3c(Cl)cccc32)cc1
*A* inactive

---

System: SK-MEL-5 melanoma
Experiment: NCI-60 one-dose screen, 48 h (100 = growth as untreated, 0 = no growth, -100 = all killed)
Conditions: 10 µM unless noted
Protocol: Growth inhibition of the SK-MEL-5 human tumor cell line is measured as a screen for anti-cancer activity. Cells are grown in 96 well plates and exposed to the test compound for 48 hours. Compounds are tested at a single concentration, which is 10^-5 M for most compounds. The reported endpoint is percent growth (GI% or GIPRCNT), where numbers from 0 - 100% represent growth inhibition, and numbers from -100% - 0 represent cell death. For example, a value of 40 represents 60% growth inhibition. […]
This is part of a sample that, as a whole, favours compounds with a hit. Of some 83,000 tested, about 20% had one in any assay.
Binary call on growth: True from 40% upward, False beneath that.

// known answers, use as guide
*Q* hey, is growth for this one >= 40%? Cc1ccc2[nH]c(=S)[nH]c(=O)c2c1
*A* True

*Q* For this molecule, is measured growth 40% or higher? O=C(NNc1ccccc1)C1CCCN1 (stereo unspecified)
*A* True

*Q* Textbook exercise: given the entry COc1ccc(/C=C2\COc3ccc(O)c(O)c3C2=O)c(OC)c1OC , state whether its growth is greater than or equal to 40%.
*A* False

*Q* Test whether the molecule COc1ccc(C(=O)c2ccc(OC)c(OC)c2OC)cc1 records growth of 40% or higher.
*A* False

*Q* Is reported growth greater than or equal to 40% here: COc1cc(N=Nc2ccc(O)c3ncccc23)c2ncccc2c1
*A* True

# ---- query molecule ----
*Q* Hi, just wondering whether COc1ccc(-c2ccccc2)cc1-c1c(Nc2cc(Cl)cc(Cl)c2O)c(=O)c1=O shows growth of 40% or higher.
*A* False

Origin of values: PubChem BioAssay (NCI)
